Test system: neuronal uptake of norepinephrine (NE)
Measurement protocol: Noradrenaline uptake inhibition, in vitro rat brain
Assay type: biochemical
Experimental conditions: read-out: Noradrenalin uptake IC50
Assay metric: IC50
Field: value (include unit after the number)

Completed entries (count: 4):
[
  {
    "Molecule": "CNCC1CCCCC1(O)c1cccc(OC)c1 (centres unmarked)",
    "IC50": "4.27 µM"
  },
  {
    "Molecule": "CN(C)C[C@H]1CCCC[C@]1(O)c1cccc(O)c1",
    "IC50": "41.4 µM"
  },
  {
    "Molecule": "NC[C@H]1CCCC[C@]1(O)c1cccc(O)c1",
    "IC50": "104 µM"
  },
  {
    "Molecule": "CNCC1CCCCC1(O)c1cccc(O)c1 (centres unmarked)",
    "IC50": "13.3 µM"
  }
]

Kindly review the next molecule as well.
[Q] Give its IC50 value. Item: COc1cccc([C@@]2(O)CCCC[C@@H]2CN)c1
[A] 47.7 µM

The reported numbers originate from patent US6593373B2.
